Please go through the items and note down their % Inhibition.
system: Plasmodium falciparum; experiment: Primary screen in NF54 nanoGlo assay, in single point, at 2uM, 72h; type: functional, Erythrocyte; details: timepoint 72 hour
The whole screen tested about 150,000 compounds, of which about 540 (0.36%) showed an effect of 50% or more. The entries come from a sample that favours strong results as a whole.
Give bare numbers, in %.

Known results for compounds:
Cc1c(C(c2c(C)n(C)n(-c3ccccc3)c2=O)c2c[nH]c3ccccc23)c(=O)n(-c2ccccc2)n1C = -6
CN(C)C(=NCCC1CCCC1)N(C)C = -7
COc1cccc(-c2cc(O)cc(CC[C@H]3CCCCN3)c2)n1 = 80
CCOCCCNC(=O)C1CCN(C(=O)c2cc3oc(C)cc3n2Cc2c(F)cccc2Cl)CC1 = -1
CCn1cc(C(=O)Nc2ccc(OCCN3CC[C@H](C)C3)cc2)cn1 = 5

Kindly give each listed record's % Inhibition.
1. CCOc1ccc(Cl)cc1-c1cc(C)n[nH]c1=O
2. CCC(=O)N1CCC(NCc2csc3ccccc23)C(CC)C1 (stereo not drawn)
3. Cc1nc(N(C)C)cc(N2CCN(C(=O)C3CCCC3)CC2)n1

Output:
[-8, -13, -17]

Source of measurements: ChEMBL document CHEMBL4888484
